FYI, the data here is from patent US20090023666A1.

# TEST_NAME: Pharmacokinetics following IP administration in mice
# Format: in vivo
# CONDITION_SET: mouse, plasma, ip, 2.5 mg/kg, read-out: t1/2 (terminal elimination half-life) (converted)
VALUE_KIND: half-life (h)

C[C@]12CC/C(=N\OCCN3CCCCC3)C=C1CC[C@@H]1[C@@H]2CC[C@]2(C)[C@@H](c3ccc(=O)oc3)CC[C@]12O: 1.5

---

# TEST_NAME: Pharmacokinetics following IP administration in mice
# Type: in vivo
# CONDITION_SET: mouse, plasma, ip, 2.5 mg/kg
VALUE_KIND: Cmax (ng/mL)

C[C@]12CC/C(=N\OCCN3CCCCC3)C=C1CC[C@@H]1[C@@H]2CC[C@]2(C)[C@@H](c3ccc(=O)oc3)CC[C@]12O [BP228]: 715
